subject_of_test: T1, recombinant human BCMA, commercial (US Biological, B0410) (human, UniProt Q02223 5-54, limits assumed)
T1 construct: also called commercial human BCMA; Human commercial BCMA
T1 chain (looked up): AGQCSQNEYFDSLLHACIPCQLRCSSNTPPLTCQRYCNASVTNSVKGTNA
method: Biacore T100, antibody captured on Protein A, 37C
metric: pKd
Entry type: numeric. Quantity: pKd, the -log10 of concentration in molar units.

Reference set (8 entries):
binder	pKd
CA8 humanised J7M2 (antibody, human IgG1, kappa, V domains shown, Humanised CA8, heavy chain J7 with light chain M2, human IgG1 kappa; also called CA8 J7M2) VH: QVQLVQSGAEVKKPGSSVKVSCKASGYTFTNYWMHWVRQAPGQGLEWMGATYRGHSDTYYNQKFKGRVTITADKSTSTAYMELSSLRSEDTAVYYCARGAIYDGYDVLDNWGQGTLVTVSS VL: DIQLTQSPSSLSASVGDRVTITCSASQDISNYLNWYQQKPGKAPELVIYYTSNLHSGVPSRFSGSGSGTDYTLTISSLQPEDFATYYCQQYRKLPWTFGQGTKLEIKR	10.24
CA8 humanised J9M0 (antibody, human IgG1, kappa, V domains shown, Humanised CA8, heavy chain J9 with light chain M0, human IgG1 kappa; also called CA8 J9M0) VH: QVQLVQSGAEVKKPGSSVKVSCKGSGYTFTNYWMHWVRQAPGQGLEWIGATYRGHSDTYYNQKFKGRATLTADTSTSTAYMELSSLRSEDTAVYYCTRGAIYDGYDVLDNWGQGTLVTVSS VL: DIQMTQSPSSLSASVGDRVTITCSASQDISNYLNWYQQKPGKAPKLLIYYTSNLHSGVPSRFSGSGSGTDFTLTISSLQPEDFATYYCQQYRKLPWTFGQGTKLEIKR	10.46
CA8 humanised J9M1 (antibody, human IgG1, kappa, V domains shown, Humanised CA8, heavy chain J9 with light chain M1, human IgG1 kappa; also called CA8 J9M1) VH: QVQLVQSGAEVKKPGSSVKVSCKGSGYTFTNYWMHWVRQAPGQGLEWIGATYRGHSDTYYNQKFKGRATLTADTSTSTAYMELSSLRSEDTAVYYCTRGAIYDGYDVLDNWGQGTLVTVSS VL: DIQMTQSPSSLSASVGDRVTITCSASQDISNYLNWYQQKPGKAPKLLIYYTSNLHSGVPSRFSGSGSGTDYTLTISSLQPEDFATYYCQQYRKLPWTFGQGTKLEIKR	10.74
CA8 humanised J7M0 (antibody, human IgG1, kappa, V domains shown, Humanised CA8, heavy chain J7 with light chain M0, human IgG1 kappa; also called CA8 J7M0) VH: QVQLVQSGAEVKKPGSSVKVSCKASGYTFTNYWMHWVRQAPGQGLEWMGATYRGHSDTYYNQKFKGRVTITADKSTSTAYMELSSLRSEDTAVYYCARGAIYDGYDVLDNWGQGTLVTVSS VL: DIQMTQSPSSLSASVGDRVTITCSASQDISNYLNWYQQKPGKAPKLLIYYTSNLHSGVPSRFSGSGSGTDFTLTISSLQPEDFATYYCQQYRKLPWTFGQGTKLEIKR	10.19
CA8 humanised J8M2 (antibody, human IgG1, kappa, V domains shown, Humanised CA8, heavy chain J8 with light chain M2, human IgG1 kappa; also called CA8 J8M2) VH: QVQLVQSGAEVKKPGSSVKVSCKASGYTFTNYWMHWVRQAPGQGLEWMGATYRGHSDTYYNQKFKGRVTITADKSTSTAYMELSSLRSEDTAVYYCTRGAIYDGYDVLDNWGQGTLVTVSS VL: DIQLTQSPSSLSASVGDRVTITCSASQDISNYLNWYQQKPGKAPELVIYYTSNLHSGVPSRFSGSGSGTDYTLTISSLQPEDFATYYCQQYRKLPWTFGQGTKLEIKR	10.24
CA8 chimera antibody (human chimeric CA8) (antibody, V domains shown, also called Chimera CA8; CA8 chimeric antibody) VH: EVQLQQSGAVLARPGASVKMSCKGSGYTFTNYWMHWVKQRPGQGLEWIGATYRGHSDTYYNQKFKGKAKLTAVTSTSTAYMELSSLTNEDSAVYYCTRGAIYNGYDVLDNWGQGTLVTVSS VL: DIQLTQTTSSLSASLGDRVTISCSASQDISNYLNWYQQKPDGTVELVIYYTSNLHSGVPSRFSGSGSGTDYSLTIGYLEPEDVATYYCQQYRKLPWTFGGGSKLEIKR	10.44
CA8 humanised J8M0 (antibody, human IgG1, kappa, V domains shown, Humanised CA8, heavy chain J8 with light chain M0, human IgG1 kappa; also called CA8 J8M0) VH: QVQLVQSGAEVKKPGSSVKVSCKASGYTFTNYWMHWVRQAPGQGLEWMGATYRGHSDTYYNQKFKGRVTITADKSTSTAYMELSSLRSEDTAVYYCTRGAIYDGYDVLDNWGQGTLVTVSS VL: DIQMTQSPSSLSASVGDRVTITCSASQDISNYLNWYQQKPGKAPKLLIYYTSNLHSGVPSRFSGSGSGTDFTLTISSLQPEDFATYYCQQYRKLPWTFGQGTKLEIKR	10.28
CA8 humanised J8M1 (antibody, human IgG1, kappa, V domains shown, Humanised CA8, heavy chain J8 with light chain M1, human IgG1 kappa; also called CA8 J8M1) VH: QVQLVQSGAEVKKPGSSVKVSCKASGYTFTNYWMHWVRQAPGQGLEWMGATYRGHSDTYYNQKFKGRVTITADKSTSTAYMELSSLRSEDTAVYYCTRGAIYDGYDVLDNWGQGTLVTVSS VL: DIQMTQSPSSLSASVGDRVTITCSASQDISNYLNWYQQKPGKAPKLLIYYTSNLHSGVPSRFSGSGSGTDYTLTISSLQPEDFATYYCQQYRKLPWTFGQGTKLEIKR	10.30

Now for the binder whose pKd we want.
**Query** Recorded pKd of CA8 humanised J7M1 (antibody, human IgG1, kappa, V domains shown, Humanised CA8, heavy chain J7 with light chain M1, human IgG1 kappa; also called CA8 J7M1) VH: QVQLVQSGAEVKKPGSSVKVSCKASGYTFTNYWMHWVRQAPGQGLEWMGATYRGHSDTYYNQKFKGRVTITADKSTSTAYMELSSLRSEDTAVYYCARGAIYDGYDVLDNWGQGTLVTVSS VL: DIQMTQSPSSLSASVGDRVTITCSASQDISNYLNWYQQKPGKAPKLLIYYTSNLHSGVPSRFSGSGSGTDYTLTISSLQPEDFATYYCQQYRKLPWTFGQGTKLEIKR , please.
**Result** 10.25
